Entry source: ChEMBL document CHEMBL4513216

Give cytotoxicity at 10 µM for every item shown.
Assay: Toxicity liver stage against HepG2, at 10uM
Format: cell-based
Set-up: test concentration 10 uM, cell line HepG2-A16-CD81EGFP
Settings: human, HepG2-A16-CD81EGFP cells; read-out: INHIBITION
Entry rule: numbers only, all in %.

Suppose we examine the molecule Cc1noc(C)c1CN1CCOC2(CCCN(c3nncs3)C2)C1 (stereo not drawn) ; what cytotoxicity at 10 µM value has been reported? -2.82

Suppose we examine the molecule CCN(Cc1ccoc1)C(=O)c1cc2c(c(S(N)(=O)=O)c1)CCC2 ; what cytotoxicity at 10 µM value has been reported? -4.97

Suppose we examine the molecule OC[C@@H](O)CN(CCC(F)(F)F)c1ncc(Br)cn1 ; what cytotoxicity at 10 µM value has been reported? -8.72

Suppose we examine the molecule CCOC(C)c1nc(CN2CCC(CNC(C)=O)CC2)cs1 (stereo not drawn) ; what cytotoxicity at 10 µM value has been reported? -15

Suppose we examine the molecule CCNc1ncc(C2CC(=O)Nc3c2cnn3Cc2ccncc2)cn1 (stereo not drawn) ; what cytotoxicity at 10 µM value has been reported? -6.87

Suppose we examine the molecule CCN(Cc1noc(CC(C)C)n1)Cc1ccccc1OCC(=O)O ; what cytotoxicity at 10 µM value has been reported? -49

Suppose we examine the molecule Cc1[nH]c2ccccc2c1-c1ccnc(NCCN2CCOCC2)n1 ; what cytotoxicity at 10 µM value has been reported? 7.12

Suppose we examine the molecule CC(C)(O)CN1CCN(C(=O)c2cccnc2O)CC1 ; what cytotoxicity at 10 µM value has been reported? -21.7

Suppose we examine the molecule CC1=C(C#N)C(=O)NC(=O)/C1=C\c1c(C)[nH]n(-c2ccc(Cl)cc2)c1=O ; what cytotoxicity at 10 µM value has been reported? -8.94

Suppose we examine the molecule c1cnc(N2CCOCC3(CN(Cc4ccsc4)CCO3)C2)nc1 (stereo not drawn) ; what cytotoxicity at 10 µM value has been reported? 5.83

Suppose we examine the molecule O=C(O)c1csc(S(=O)(=O)N2CCN(Cc3c(F)cccc3Cl)CC2)c1 ; what cytotoxicity at 10 µM value has been reported? -2.56

Suppose we examine the molecule Cc1nc(C)c(C(=O)N2CCCC(C(=O)c3nccn3C)C2)s1 (stereo not drawn) ; what cytotoxicity at 10 µM value has been reported? 2.3

Suppose we examine the molecule CC(C)(CNCc1ccc(OCc2cscn2)cc1)C(N)=O ; what cytotoxicity at 10 µM value has been reported? -137

Suppose we examine the molecule CN(C)C[C@H]1OC[C@@H]2CCN(C(=O)Cc3cccs3)C[C@@H]21 ; what cytotoxicity at 10 µM value has been reported? 7.13

Suppose we examine the molecule CCOc1ccc(CC(=O)N2CCN(c3nccn3C)CC2)cc1 ; what cytotoxicity at 10 µM value has been reported? 6.85

Suppose we examine the molecule O=C(NC1CCCc2c1[nH]c1ccc(F)cc21)c1n[nH]c2c1CCC2 (stereo not drawn) ; what cytotoxicity at 10 µM value has been reported? 51.7

Suppose we examine the molecule CN(C)CC1(O)CCCN(C(=O)Cc2ccc(Cl)c(Cl)c2)C1 (stereo not drawn) ; what cytotoxicity at 10 µM value has been reported? 0.355

Suppose we examine the molecule CN(C)c1cc(C(=O)N2CCCC2)ccn1 ; what cytotoxicity at 10 µM value has been reported? -4.1

Suppose we examine the molecule CC(=O)N1CCC2(CC1)CN(C(=O)c1cccc3[nH]ccc13)CCO2 ; what cytotoxicity at 10 µM value has been reported? -149

Suppose we examine the molecule O=C(NCC1CCOCC1)[C@@H]1C[C@@H]2CCN(Cc3ccco3)C[C@H]2O1 ; what cytotoxicity at 10 µM value has been reported? -8.09

Suppose we examine the molecule CC(C)[C@H]1COC(=O)N1CC(=O)N1CCCN(C(=O)c2ccoc2)CC1 ; what cytotoxicity at 10 µM value has been reported? 3.38

Suppose we examine the molecule N#CC1(NC(=O)Cn2nnc(-c3cc4ccccc4o3)n2)CCCC1 ; what cytotoxicity at 10 µM value has been reported? 0.696

Suppose we examine the molecule CC(C)OC(=O)CC(NC(=O)CCn1cccn1)c1ccccc1 (stereo not drawn) ; what cytotoxicity at 10 µM value has been reported? -12.2
